Assignment: determine reported IC50 for the given compounds.
Molecular target: Recombinant HDAC1 (Homo sapiens (Human), UniProt Q13547)
Sequence (Q13547 whole entry): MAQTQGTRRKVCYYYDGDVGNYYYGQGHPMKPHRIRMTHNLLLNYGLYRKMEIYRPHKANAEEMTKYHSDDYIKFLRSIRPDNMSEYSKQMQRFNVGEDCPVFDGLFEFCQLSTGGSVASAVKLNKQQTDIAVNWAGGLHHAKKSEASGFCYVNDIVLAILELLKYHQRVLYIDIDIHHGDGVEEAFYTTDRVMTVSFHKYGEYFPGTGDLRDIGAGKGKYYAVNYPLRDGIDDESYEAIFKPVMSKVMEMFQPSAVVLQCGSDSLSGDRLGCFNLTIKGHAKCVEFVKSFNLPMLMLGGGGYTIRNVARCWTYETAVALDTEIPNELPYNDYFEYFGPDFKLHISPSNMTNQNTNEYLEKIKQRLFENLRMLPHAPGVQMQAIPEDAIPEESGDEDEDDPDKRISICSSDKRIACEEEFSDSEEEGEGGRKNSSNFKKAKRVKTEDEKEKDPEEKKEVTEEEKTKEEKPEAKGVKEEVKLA
Test: HDAC1 inhibition, Fluor de Lys fluorescent enzyme assay
Conditions: 3 hours pre-incubation at room temp; 6 nM enzyme; 16 μM Fluor de Lys substrate; duplicate

// compound N=S(=O)(c1ccc(C(=O)Nc2cc(-c3ccc(F)cc3)ccc2N)cc1)c1cnc(O)nc1 (centres unmarked) , assay Recombinant HDAC1 (Homo sapiens (Human), UniProt Q13547), IC50 value: < 0.1 µM

Item: Cc1nc[nH]c1S(=N)(=O)c1ccc(C(=O)Nc2cc(-c3ccc(F)cc3)ccc2N)cc1 (centres unmarked) | System: Recombinant HDAC1 (Homo sapiens (Human), UniProt Q13547) | IC50: < 0.1 µM

Lab note: compound CCN=S(C)(=O)c1ccc(C(=O)Nc2cc(-c3ccc(F)cc3)ccc2N)cn1 (centres unmarked) tested on Recombinant HDAC1 (Homo sapiens (Human), UniProt Q13547); recorded IC50 was < 0.1 µM

Entry CCN=S(C)(=O)c1ccc(C(=O)Nc2cc(-c3ccc(F)cc3)ccc2N)cc1 (centres unmarked) : IC50 on Recombinant HDAC1 (Homo sapiens (Human), UniProt Q13547) = < 0.1 µM

Recombinant HDAC1 (Homo sapiens (Human), UniProt Q13547) data for CS(=N)(=O)c1ccc(C(=O)Nc2cc(-c3ccc(F)c(F)c3)ccc2N)cc1 (centres unmarked) ; its IC50: 0.1 to 0.5 µM

Entry CC(C)c1cncc(S(=N)(=O)c2ccc(C(=O)Nc3cc(-c4ccc(F)cc4)ccc3N)cc2)c1 (centres unmarked) , tested on Recombinant HDAC1 (Homo sapiens (Human), UniProt Q13547), has a reported IC50 of < 0.1 µM

Readout IC50 for N=S(=O)(c1ccc(C(=O)Nc2cc(-c3ccc(F)cc3)ccc2N)cc1)c1cnccc1O (centres unmarked) , test system Recombinant HDAC1 (Homo sapiens (Human), UniProt Q13547), was < 0.1 µM

Observed IC50 on Recombinant HDAC1 (Homo sapiens (Human), UniProt Q13547), entry CS(=N)(=O)c1ccc(C(=O)Nc2cc(C#CC3CC3)ccc2N)cc1 (centres unmarked) , equals > 2 µM

* * *

Biological target: HDAC3/NCor2 (Homo sapiens (Human))
Assay: HDAC3 inhibition, Fluor de Lys fluorescent enzyme assay
Conditions: 3 hours pre-incubation at room temp; 1.2 nM enzyme; 16 μM Fluor de Lys substrate; duplicate
pIC50: −log10 of the molar value.
Assignment: determine reported pIC50 for the given compounds.

Record N=S(=O)(c1ccc(C(=O)Nc2cc(-c3ccc(F)cc3)ccc2N)cc1)c1cncc(CO)c1 (stereo not shown) / HDAC3/NCor2 (Homo sapiens (Human)), pIC50 recorded as 5.70 to 6.30

Bench note, HDAC3/NCor2 (Homo sapiens (Human)): CS(=O)(=NC1CC1)c1ccc2sc(C(=O)Nc3cc(-c4ccc(F)cc4)ccc3N)cc2c1 (stereo not shown) , pIC50 reads 5.70 to 6.30

pIC50 for HDAC3/NCor2 (Homo sapiens (Human)) with input CS(=N)(=O)c1ccc(C(=O)Nc2cc(-c3ccccn3)ccc2N)cc1 (stereo not shown) equals < 5.70

Query Nc1ccc(-c2ccc(F)cc2)cc1NC(=O)c1cc2cc(S3(=O)=NCCC3)ccc2s1 (stereo not shown) on HDAC3/NCor2 (Homo sapiens (Human)); pIC50 returned: 5.70 to 6.30

* * *

Molecular target: Recombinant HDAC1 (Homo sapiens (Human))
Assay: HDAC1 inhibition, Fluor de Lys fluorescent enzyme assay
Conditions: 3 hours pre-incubation at room temp; 6 nM enzyme; 16 μM Fluor de Lys substrate; duplicate
Provide the reported IC50 of each item.

Recorded IC50 (molecule CS(=O)(=NC#N)c1ccc(C(=O)Nc2cc(-c3cccs3)ccc2N)cc1 (centres unmarked) ): < 100 nM

Memo: CS(=O)(=NC1CC1)c1ccc(C(=O)Nc2cc(-c3ccc(F)cc3)ccc2N)cc1 (centres unmarked) , reported IC50: < 100 nM

IC50 for CS(=N)(=O)c1ccc2sc(C(=O)Nc3cc(-c4cccs4)ccc3N)cc2c1 (centres unmarked) is < 100 nM

IC50 reported for this molecule CS(=N)(=O)c1ccc(C(=O)Nc2cc(-c3ncccn3)ccc2N)cc1 (centres unmarked) : 500 to 2000 nM

The molecule N=S(=O)(c1ccc(C(=O)Nc2cc(-c3ccc(F)cc3)ccc2N)cc1)c1ccc(F)cn1 (centres unmarked) showed IC50 equal to < 100 nM

IC50 measured on N=S(=O)(c1ccc(C(=O)Nc2cc(-c3ccc(F)cc3)ccc2N)cc1)c1ccccc1F (centres unmarked) = < 100 nM

Entry N=S(=O)(c1ccc(C(=O)Nc2cc(-c3ccccn3)ccc2N)cc1)C1CC1 (centres unmarked) ; IC50 = 100 to 500 nM

Given item CS(=N)(=O)c1ccc(C(=O)Nc2cc(-c3cccs3)ccc2N)cn1 (centres unmarked) , the value recorded as its IC50 is < 100 nM

* * *

Target: HDAC3/NCor2 (Homo sapiens (Human), UniProt O15379)
Sequence (O15379 whole entry): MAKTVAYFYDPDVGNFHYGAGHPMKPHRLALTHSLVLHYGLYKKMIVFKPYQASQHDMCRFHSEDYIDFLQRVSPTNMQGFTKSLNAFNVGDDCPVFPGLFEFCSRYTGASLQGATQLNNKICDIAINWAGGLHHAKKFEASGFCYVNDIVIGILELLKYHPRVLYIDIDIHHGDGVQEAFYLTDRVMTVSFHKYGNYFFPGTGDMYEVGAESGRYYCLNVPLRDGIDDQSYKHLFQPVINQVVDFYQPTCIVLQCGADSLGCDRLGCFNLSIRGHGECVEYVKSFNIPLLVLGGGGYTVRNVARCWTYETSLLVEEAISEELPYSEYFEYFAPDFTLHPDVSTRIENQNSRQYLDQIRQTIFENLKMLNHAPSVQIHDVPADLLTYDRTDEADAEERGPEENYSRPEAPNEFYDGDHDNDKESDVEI
Sequence (Q9Y618 395-489 partner): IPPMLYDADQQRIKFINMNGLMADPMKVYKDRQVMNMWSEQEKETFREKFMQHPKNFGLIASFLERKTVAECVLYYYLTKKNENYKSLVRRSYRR
Assay: HDAC3 inhibition, Fluor de Lys fluorescent enzyme assay
Details: 3 hours pre-incubation at room temp; 1.2 nM enzyme; 16 μM Fluor de Lys substrate; duplicate
pIC50: −log10 of the molar value.
Could you please report measured pIC50 for the items listed next?

Lab note: measured pIC50 of N=S(=O)(c1ccc(C(=O)Nc2cc(-c3ccc(F)cc3)ccc2N)cc1)c1cnc(O)nc1 (stereo not shown) was < 5.70

Note to self: pIC50 recorded for N=S(=O)(c1ccc(C(=O)Nc2cc(-c3ccc(F)cc3)ccc2N)cc1)c1ccc(=O)[nH]c1 (stereo not shown) was 5.70 to 6.30

pIC50 measured on Cc1ncc(S(=N)(=O)c2ccc(C(=O)Nc3cc(-c4ccc(F)cc4)ccc3N)cc2)[nH]1 (stereo not shown) = 6.30 to 7.00

pIC50 reported for this compound CCN=S(C)(=O)c1ccc(C(=O)Nc2cc(-c3ccc(F)cc3)ccc2N)cn1 (stereo not shown) : 5.70 to 6.30

* * *

Molecular target: HDAC3/NCor2 (Homo sapiens (Human), UniProt O15379)
Test: HDAC3 inhibition, Fluor de Lys fluorescent enzyme assay
Details: 3 hours pre-incubation at room temp; 1.2 nM enzyme; 16 μM Fluor de Lys substrate; duplicate
pIC50: −log10 of the molar value.
For each entry below, report its pIC50 value.

What the record says about N#Cc1cncc(S(=N)(=O)c2ccc(C(=O)Nc3cc(-c4ccc(F)cc4)ccc3N)cc2)c1 (stereo not shown) : pIC50 is < 5.70

The value of pIC50 measured for the molecule N=S(=O)(c1ccc(C(=O)Nc2cc(-c3cccs3)ccc2N)cn1)C1CC1 (stereo not shown) turned out to be 5.70 to 6.30

Form: molecule = CS(=N)(=O)c1ccc(C(=O)Nc2cc(-c3cccnn3)ccc2N)cc1 (stereo not shown) ; pIC50 = < 5.70

Lab note: CS(=N)(=O)c1ccc(C(=O)Nc2cc(-c3ccc(C(N)=O)s3)ccc2N)cc1 (stereo not shown) gave pIC50 of < 5.70

Value of pIC50 reported for the molecule CS(=O)(=NC1CC1)c1ccc(C(=O)Nc2cc(-c3ccc(F)cc3)ccc2N)cc1 (stereo not shown) is 6.30 to 7.00

Entry Cc1csc(-c2ccc(N)c(NC(=O)c3ccc(S(C)(=N)=O)cc3)c2)c1 (stereo not shown) ; pIC50 = < 5.70

For reference, reported pIC50 for N=S(=O)(c1ccc(C(=O)Nc2cc(-c3cccnc3)ccc2N)cc1)C1CC1 (stereo not shown) stands at 5.70 to 6.30

Lab book: pIC50 of N=[S@@](=O)(c1ccc(C(=O)Nc2cc(-c3cccs3)ccc2N)cc1)C1CC1 (single isomer, unassigned) noted as 5.70 to 6.30

Briefly, pIC50 measured for N=S(=O)(c1ccc(C(=O)Nc2cc(-c3ccc(F)cc3)ccc2N)cc1)c1cccnn1 (stereo not shown) : 5.70 to 6.30

Reported pIC50 for CS(=N)(=O)c1ccc(C(=O)Nc2cc(-c3cccs3)ccc2N)nc1 (stereo not shown) was 5.70 to 6.30

Recorded pIC50 (molecule Nc1ccc(-c2ccc(F)cc2)cc1NC(=O)c1ccc([S@@]2(=O)=N[C@@H](c3ccccc3)CC2)cc1 (racemic) ): < 5.70

Reported pIC50 for N=S(=O)(c1ccc(C(=O)Nc2cc(-c3ccccn3)ccc2N)cc1)C1CC1 (stereo not shown) was < 5.70

Memo: C[S@@](=N)(=O)c1ccc(C(=O)Nc2cc(-c3cccs3)ccc2N)cc1 (single isomer, unassigned) , reported pIC50: 5.70 to 6.30

Value of measured pIC50 for the entry Cc1ccncc1S(=N)(=O)c1ccc(C(=O)Nc2cc(-c3ccc(F)cc3)ccc2N)cc1 (stereo not shown) : 5.70 to 6.30

# molecule N=[S@](=O)(c1ccc(C(=O)Nc2cc(-c3ccc(F)cc3)ccc2N)cc1)C1CC1 (single isomer, unassigned) ; its pIC50 = 5.70 to 6.30

Per the records, this molecule ( CS(=N)(=O)c1ccc(C(=O)Nc2cc(-c3cccc(C(N)=O)c3)ccc2N)cc1 (stereo not shown) ) has pIC50 equal to < 5.70
